Target: human recombinant HDAC6 (Homo sapiens, UniProt Q9UBN7)
Construct: purchased Calbiochem Inc. 382180
Sequence (Q9UBN7 whole entry): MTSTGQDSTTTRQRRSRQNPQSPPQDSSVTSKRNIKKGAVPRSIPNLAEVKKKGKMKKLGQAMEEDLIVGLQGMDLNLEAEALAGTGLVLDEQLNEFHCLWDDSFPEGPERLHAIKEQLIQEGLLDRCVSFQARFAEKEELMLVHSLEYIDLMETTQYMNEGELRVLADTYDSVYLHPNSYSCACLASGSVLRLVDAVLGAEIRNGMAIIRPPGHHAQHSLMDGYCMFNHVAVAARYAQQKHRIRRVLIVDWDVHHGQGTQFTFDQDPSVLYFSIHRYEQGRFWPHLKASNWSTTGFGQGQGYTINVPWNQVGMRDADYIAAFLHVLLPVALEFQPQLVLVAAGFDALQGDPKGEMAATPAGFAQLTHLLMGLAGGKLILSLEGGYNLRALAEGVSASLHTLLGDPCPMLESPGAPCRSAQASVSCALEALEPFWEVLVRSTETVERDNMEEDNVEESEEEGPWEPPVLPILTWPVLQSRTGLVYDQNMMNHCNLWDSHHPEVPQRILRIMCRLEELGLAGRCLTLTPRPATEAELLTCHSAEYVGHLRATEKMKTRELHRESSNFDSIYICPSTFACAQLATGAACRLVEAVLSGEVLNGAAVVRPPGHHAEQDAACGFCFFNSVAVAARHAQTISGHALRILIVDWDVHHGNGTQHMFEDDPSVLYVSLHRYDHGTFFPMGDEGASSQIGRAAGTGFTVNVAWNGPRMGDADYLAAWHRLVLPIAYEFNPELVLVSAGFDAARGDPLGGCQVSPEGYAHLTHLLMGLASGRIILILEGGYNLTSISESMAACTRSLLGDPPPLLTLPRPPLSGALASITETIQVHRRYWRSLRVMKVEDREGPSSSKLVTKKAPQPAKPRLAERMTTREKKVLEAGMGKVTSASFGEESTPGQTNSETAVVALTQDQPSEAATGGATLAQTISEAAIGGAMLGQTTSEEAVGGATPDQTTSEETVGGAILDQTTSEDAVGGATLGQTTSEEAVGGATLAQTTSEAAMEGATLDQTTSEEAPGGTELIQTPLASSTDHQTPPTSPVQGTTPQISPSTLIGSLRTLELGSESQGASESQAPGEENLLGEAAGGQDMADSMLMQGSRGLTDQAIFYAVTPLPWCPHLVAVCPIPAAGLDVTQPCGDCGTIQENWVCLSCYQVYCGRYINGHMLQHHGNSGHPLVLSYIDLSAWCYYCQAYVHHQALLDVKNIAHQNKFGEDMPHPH
Experiment: HDAC6 enzyme activity inhibition (HDAC Fluorimetric Drug Discovery Kit)
Assay type: biochemical
Details: human recombinant HDAC6; IC50 calculated with GraphPad Prism
Lab note: anything with IC50 below 0.05 µM is marked MET; values at 0.05 µM or higher are marked NOT MET.

Example entries begin here.
- Compound: "CN1CCN(c2cc(-c3cn(Cc4ccc(-c5nnc(C(F)F)o5)cc4)nn3)ccc2F)CC1"
  Discrete Label: "NOT MET"
- Compound: "C[C@@H]1CN(c2cccc(-c3cn(Cc4ccc(-c5nnc(C(F)F)o5)cc4F)nn3)c2)C[C@H](C)N1"
  Discrete Label: "MET"
- Compound: "CN(C)CCN(C)Cc1cccc(-c2cn(Cc3ccc(-c4nnc(C(F)F)o4)cn3)nn2)c1"
  Discrete Label: "MET"
- Compound: "Cn1ncc2c(-c3cn(Cc4ccc(-c5nnc(C(F)F)o5)cn4)nn3)cccc21"
  Discrete Label: "MET"
- Compound: "Fc1cc(-c2nnc(C(F)F)o2)ccc1Cn1cc(-c2cccc(N3C[C@@H]4C[C@H]3CN4)c2)nn1"
  Discrete Label: "NOT MET"
- Compound: "FC(F)c1nnc(-c2ccc(Cn3cc(-c4ccc5[nH]cnc5c4)nn3)nc2)o1"
  Discrete Label: "MET"

Read the next record carefully.
### Prompt Problem: For the compound CC(C)(C)OC(=O)Nc1cccc(-c2cn(Cc3ccc(-c4nnc(C(F)F)o4)cc3F)nn2)c1 , is IC50 under 0.05 µM?
### Response MET

* * *

Would you mind telling me the reported HDAC6 selectivity (fold) of each entry?
Molecular target: human recombinant HDAC6 (Homo sapiens, UniProt Q9UBN7)
Construct: purchased Calbiochem Inc. 382180
Experiment: HDAC6 enzyme activity inhibition (HDAC Fluorimetric Drug Discovery Kit)
Assay type: biochemical
Conditions: HDAC1 IC50 / HDAC6 IC50
Answers are plain numbers, in fold.

- Chemical Structure: "Fc1ccc(-c2cn(Cc3ccc(-c4nnc(C(F)F)o4)cn3)nn2)cc1F"
  Value Unit: "fold"
  HDAC6 selectivity (fold): 1043
- Chemical Structure: "CC(C)N1CCc2ccc(-c3cn(Cc4ccc(-c5nnc(C(F)F)o5)cn4)nn3)cc2C1"
  Value Unit: "fold"
  HDAC6 selectivity (fold): 963
- Chemical Structure: "CN1CCN(c2ccc(-c3cn(Cc4ccc(-c5nnc(C(F)F)o5)cn4)nn3)cc2)CC1"
  Value Unit: "fold"
  HDAC6 selectivity (fold): 1256

Attention now turns to another entry.
### Prompt Output reported HDAC6 selectivity (fold) of the compound FC(F)c1nnc(-c2ccc(Cn3cc(-c4cccc5[nH]ncc45)nn3)nc2)o1 on human recombinant HDAC6 (Homo sapiens, UniProt Q9UBN7).
### Response 9090

* * *

Molecular target: human recombinant HDAC6 (Homo sapiens)
Construct: purchased Calbiochem Inc. 382180
Experiment: HDAC6 enzyme activity inhibition (HDAC Fluorimetric Drug Discovery Kit)
Format: biochemical
Settings: human recombinant HDAC6; IC50 calculated with GraphPad Prism
Lab note: anything with IC50 below 30 nM is marked criterion met; values at 30 nM or higher are marked criterion not met.

### Prompt Problem: For the compound FC(F)c1nnc(-c2ccc(Cn3cc(-c4cccc5[nH]ncc45)nn3)cc2)o1 [Compound 4347] , is IC50 under 30 nM?
### Response criterion met

### Prompt Problem: For the compound FC(F)c1nnc(-c2ccc(Cn3cc(-c4cccc(N5CCN(C6COC6)CC5)c4)nn3)cc2)o1 [Compound 4370] , is IC50 under 30 nM?
### Response criterion not met

### Prompt Problem: For the compound CCN1[C@H](C)CN(c2cccc(-c3cn(Cc4ccc(-c5nnc(C(F)F)o5)cc4F)nn3)c2)C[C@@H]1C [Compound 4444] , is IC50 under 30 nM?
### Response criterion met

### Prompt Problem: For the compound O=C(O)c1cccc(-c2cn(Cc3ccc(-c4nnc(C(F)F)o4)cc3F)nn2)c1 [Compound 3660] , is IC50 under 30 nM?
### Response criterion not met

### Prompt Problem: For the compound CCN1CCN(Cc2ccc(-c3cn(Cc4ccc(-c5nnc(C(F)F)o5)cc4F)nn3)cc2)CC1 [Compound 4474] , is IC50 under 30 nM?
### Response criterion not met

### Prompt Problem: For the compound FC(F)c1nnc(-c2ccc(Cn3cc(-c4ccc5cn[nH]c5c4)nn3)nc2)o1 [Compound 4340] , is IC50 under 30 nM?
### Response criterion met

### Prompt Problem: For the compound FC(F)c1nnc(-c2ccc(Cn3cc(-c4ccccc4)nn3)nc2)o1 [Compound 3736] , is IC50 under 30 nM?
### Response criterion met

### Prompt Problem: For the compound Cc1cc2ccc(-c3cn(Cc4ccc(-c5nnc(C(F)F)o5)cc4)nn3)cc2[nH]1 [Compound 4288] , is IC50 under 30 nM?
### Response criterion not met
